# System: recombinant human ACC2 (Homo sapiens (Human))
# Sequence (O00763 27-2458): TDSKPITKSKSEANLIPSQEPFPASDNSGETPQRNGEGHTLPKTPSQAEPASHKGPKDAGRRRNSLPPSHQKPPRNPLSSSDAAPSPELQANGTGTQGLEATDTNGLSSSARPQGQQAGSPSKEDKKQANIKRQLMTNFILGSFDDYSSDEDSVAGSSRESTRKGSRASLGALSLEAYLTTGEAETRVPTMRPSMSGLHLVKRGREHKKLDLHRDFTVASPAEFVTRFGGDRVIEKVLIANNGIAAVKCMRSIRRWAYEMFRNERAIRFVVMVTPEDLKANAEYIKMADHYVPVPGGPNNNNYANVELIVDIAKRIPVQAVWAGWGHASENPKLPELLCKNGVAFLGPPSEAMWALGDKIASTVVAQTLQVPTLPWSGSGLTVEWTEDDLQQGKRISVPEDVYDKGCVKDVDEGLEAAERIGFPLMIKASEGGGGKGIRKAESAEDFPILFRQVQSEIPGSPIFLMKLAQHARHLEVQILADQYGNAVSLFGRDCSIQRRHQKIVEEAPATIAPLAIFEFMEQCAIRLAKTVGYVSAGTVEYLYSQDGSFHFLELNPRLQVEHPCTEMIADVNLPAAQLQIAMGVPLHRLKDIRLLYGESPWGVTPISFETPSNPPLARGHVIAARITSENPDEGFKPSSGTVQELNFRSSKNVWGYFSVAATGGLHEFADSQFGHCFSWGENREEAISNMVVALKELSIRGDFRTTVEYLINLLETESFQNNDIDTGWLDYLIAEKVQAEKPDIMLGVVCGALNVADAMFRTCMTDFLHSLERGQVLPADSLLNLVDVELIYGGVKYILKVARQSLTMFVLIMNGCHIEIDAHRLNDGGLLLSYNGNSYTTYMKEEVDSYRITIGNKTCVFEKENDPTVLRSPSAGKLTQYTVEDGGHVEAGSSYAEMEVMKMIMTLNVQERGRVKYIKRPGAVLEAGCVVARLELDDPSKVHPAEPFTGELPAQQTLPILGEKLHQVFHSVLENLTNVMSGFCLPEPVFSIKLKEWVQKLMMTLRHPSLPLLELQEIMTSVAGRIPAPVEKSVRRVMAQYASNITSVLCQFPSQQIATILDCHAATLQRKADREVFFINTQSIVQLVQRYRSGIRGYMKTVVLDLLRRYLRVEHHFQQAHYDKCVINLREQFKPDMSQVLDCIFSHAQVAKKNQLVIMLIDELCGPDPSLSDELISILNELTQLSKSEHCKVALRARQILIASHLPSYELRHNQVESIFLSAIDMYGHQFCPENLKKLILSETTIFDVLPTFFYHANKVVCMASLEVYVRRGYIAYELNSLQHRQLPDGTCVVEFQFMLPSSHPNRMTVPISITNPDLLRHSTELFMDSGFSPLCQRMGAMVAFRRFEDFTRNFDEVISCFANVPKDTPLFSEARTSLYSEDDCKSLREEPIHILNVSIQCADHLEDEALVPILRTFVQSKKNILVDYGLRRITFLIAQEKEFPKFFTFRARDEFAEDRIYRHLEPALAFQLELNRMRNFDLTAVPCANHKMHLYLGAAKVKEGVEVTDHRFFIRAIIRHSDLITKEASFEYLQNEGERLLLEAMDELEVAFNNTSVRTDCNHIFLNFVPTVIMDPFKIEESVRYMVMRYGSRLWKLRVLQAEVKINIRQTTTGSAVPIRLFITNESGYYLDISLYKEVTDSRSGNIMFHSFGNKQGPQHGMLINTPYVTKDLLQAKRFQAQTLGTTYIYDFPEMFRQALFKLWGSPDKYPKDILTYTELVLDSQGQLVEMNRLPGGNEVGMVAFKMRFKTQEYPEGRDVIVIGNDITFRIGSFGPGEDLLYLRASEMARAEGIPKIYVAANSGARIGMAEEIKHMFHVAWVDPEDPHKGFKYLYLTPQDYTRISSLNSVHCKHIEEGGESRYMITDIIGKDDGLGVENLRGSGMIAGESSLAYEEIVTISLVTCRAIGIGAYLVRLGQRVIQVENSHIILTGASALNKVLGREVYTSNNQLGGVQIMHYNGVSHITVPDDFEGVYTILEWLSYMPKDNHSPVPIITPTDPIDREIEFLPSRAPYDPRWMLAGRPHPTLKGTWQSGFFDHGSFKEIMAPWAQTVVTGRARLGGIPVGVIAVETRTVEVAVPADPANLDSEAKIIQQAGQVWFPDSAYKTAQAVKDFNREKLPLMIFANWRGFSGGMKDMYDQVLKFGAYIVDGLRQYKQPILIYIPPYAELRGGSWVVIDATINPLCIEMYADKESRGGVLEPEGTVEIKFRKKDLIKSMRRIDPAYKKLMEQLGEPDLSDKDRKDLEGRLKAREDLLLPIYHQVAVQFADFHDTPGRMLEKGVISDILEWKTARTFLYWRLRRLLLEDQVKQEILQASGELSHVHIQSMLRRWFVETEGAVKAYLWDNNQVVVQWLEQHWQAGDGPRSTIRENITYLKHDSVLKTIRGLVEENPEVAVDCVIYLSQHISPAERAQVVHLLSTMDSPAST
# Test: Measurement of inhibitory activity on human ACC2 (MALDI-TOF MS, acetyl CoA to malonyl CoA conversion)
# Format: biochemical
# Condition details: Tables 155-159
IC50 strictly less than 0.1 µM = Met. Otherwise Not met.

• CC(=O)N[C@@H](C)C(F)(F)C[C@@H]1CC[C@@H](Oc2nc3c(F)cc(OCC(F)F)c(F)c3n2C)CO1 = Not met
• CC(=O)N[C@@H](C)CO[C@H]1C[C@](F)(COc2ccc3nc(C(C)(F)F)sc3c2F)C1 = Met
• CCCOc1nc2cc(F)c(O[C@H]3CC[C@H](OC[C@H](C)NC(C)=O)CC3)nc2n1C = Met
• CC(=O)N[C@@H](C)CO[C@H]1C[C@H](COc2ccc3nc(N4CCCC4)sc3n2)C1 = Met
• CC(=O)N[C@@H](C)CO[C@H]1CC[C@H](Oc2nc3cnc(Oc4ccccc4)cc3n2C)CC1 = Not met
• C[C@@H](CO[C@H]1CC[C@H](Oc2cc3sc(OCC4CC4(F)F)nc3cn2)CC1)NC(N)=O (stereo partly shown) = Met
• CC(=O)N[C@@H](C)CO[C@H]1CC[C@H](Oc2nc3c(C4CC4)cc(OCC(F)F)cc3n2C)CC1 = Not met
• CC(=O)N[C@@H](C)CO[C@H]1C[C@H](COc2ncnc(OCc3ccc(Cl)cn3)c2F)C1 = Met
• CC(=O)N[C@@H](C)CO[C@H]1C[C@H](COc2ccc3nc(OC4CCCCC4)sc3n2)C1 = Met
• CNC(=O)N[C@@H](C)CO[C@H]1CC[C@H](Oc2nc3c(F)cc(OCC(F)F)c(F)c3n2C)CC1 = Met
• CCOc1cc(F)c2c(nc(O[C@H]3CC[C@H](OC[C@H](C)NC(C)=O)CC3)n2C)c1F = Not met
• CC(=O)N[C@@H](C)CO[C@H]1CC[C@H](Oc2nc3c(F)cc(OCC(F)F)cc3n2C)CC1 = Met
• CC(=O)N[C@@H](C)CO[C@H]1C[C@H](COc2nccc3ccccc23)C1 = Met
• CC(=O)N[C@@H](C)CO[C@H]1CC[C@H](Oc2cc3sc(OC(C)C)nc3cc2Cl)CC1 = Not met
• CC(=O)N[C@@H](C)CO[C@H]1CC[C@H](Oc2cc3sc(O[C@H]4CCOC4)nc3cn2)CC1 = Met
• CC(=O)N[C@@H](C)CO[C@H]1C[C@H](COc2ccc3nc(N4CCOCC4)sc3n2)C1 = Not met
• CCOc1c(F)cc2nc(O[C@H]3CC[C@H](OC[C@H](C)NC(C)=O)CC3)n(C)c2c1F = Met
• CC(=O)N[C@@H](C)CO[C@H]1CC[C@H](Oc2nc3ccc(OCc4ccccc4)c(F)c3n2C)CC1 = Met
• C[C@@H](CO[C@H]1CC[C@H](Oc2nc3c(F)cc(OCC(F)F)c(F)c3n2C)CC1)NC(=O)N(C)C = Met

====

# System: recombinant human ACC2 (Homo sapiens (Human))
# Test: Measurement of inhibitory activity on human ACC2 (MALDI-TOF MS, acetyl CoA to malonyl CoA conversion)
# Type: biochemical
# Condition details: Tables 155-159
pIC50: −log10 of the molar value.
Measured property: pIC50

- CCOc1nc2ccc(OC[C@]3(F)C[C@@H](OC[C@H](C)NC(C)=O)C3)c(F)c2s1: 7.92
- CC(=O)N[C@@H](C)CO[C@H]1C[C@H](COc2ncnc(OCc3cccc(F)c3)c2Cl)C1: 8.10
- CC(=O)N[C@@H](C)CO[C@H]1C[C@H](COc2ncnc(N(C)Cc3ccccc3)c2Cl)C1: 7.08
- CC(=O)N[C@@H](C)CO[C@H]1C[C@H](COc2ccc3nc(OCC4CC4)sc3n2)C1: 8.22
- COC(=O)NC(=O)N[C@@H](C)CO[C@H]1CC[C@H](Oc2nc3cnc(OC4CC4)c(Cl)c3n2C)CC1: 6.30
